Each recorded value in this set is attributed to PubChem BioAssay (NCI).

protocol details: NCI Yeast Anticancer Drug Screen. Data for the mec2-1 strain (AID 157)
condition label: S. cerevisiae mec2-1 strain, at 5.0 µM (retest, dose inferred, filed as 0.5), stronger effect = higher value
This is part of a sample that, as a whole, favours compounds with a hit. Of some 79,000 tested, about 15% had one in any assay.
Would you mind telling me the reported growth inhibition of each entry?
Numbers only, in %.

These solved cases illustrate the format of a correct answer.
CCCCCCCCCCCCCCCCOCC(Cl)COP(=O)(O)OP(=O)(O)OCC1OC(n2cc(C)c(=O)[nH]c2=O)CC1O (configuration not stated) | 30
O=C(/C(=C\I)c1ccccc1)c1ccccc1 | -15
Cc1c2ccnc(-c3ccc(F)cc3)c2cc2c1[nH]c1ccccc12 | -14
COc1ccc(C(=O)c2cc(Cl)ccc2N)cc1 | -1
CC(c1ccc2cccc(F)c2c1)c1ccccc1C(=O)O (configuration not stated) | 6
CC(=O)OCCSCCOC(C)=O | -1

Items follow; give growth inhibition for each.
1. Cn1nc2c(c(Cl)c1=O)Nc1ccccc1O2
2. N#CCCN(CCC#N)Cc1c(O)c(O)c(CN(CCC#N)CCC#N)c2ccccc12
3. CCCC(=O)N(C(=O)CCC)C1=C(Cl)C(=O)c2ccccc2C1=O

-9
-1
95

The following compounds each have a reported value; give each one's growth inhibition.
1. CCN(CC)CCCCNc1ccc(Cl)cc1
2. COC(=O)C(=[N+]=[N-])C(=O)c1ccc(Cl)cc1
3. CC(NC(=O)OCc1ccccc1)C(=O)NNc1ccccc1Cl (configuration not stated)
4. Oc1c(C(Nc2ccccn2)c2ccccc2)ccc2cccnc12 (configuration not stated)
5. O=c1ccc2nc3ccccc3ccc-2c1
6. CC(=O)/C(=C\c1ccco1)C(=O)Nc1ccccc1
7. Cc1ccccc1C[n+]1ccccc1Br
8. Cc1cc(Cl)nc2ccc(Cc3ccc4nc(Cl)cc(C)c4c3)cc12

1. 1
2. 2
3. 9
4. 19
5. -53
6. 0
7. 9
8. 15

====

For each record, write down the corresponding growth inhibition.
protocol details: NCI Yeast Anticancer Drug Screen. Data for the cln2 rad14 strain (AID 165);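 note: 0% = growth equal to vehicle treated cultures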
condition label: S. cerevisiae cln2 rad14 strain, at 50.0 µM (retest, dose inferred, filed as 5.0), stronger effect = higher value
The panel holds about 79,000 compounds, 15% with a hit somewhere; the sample as a whole holds those more often. Calls of active or inactive are those of the source. Rule as the data show it: active = growth inhibition above about 70%; inactive = the rest.

CCCCCCCCCCCCCCCC(=O)NCC[N+](C)(CC)CC | -15% (inactive)
Cc1c2c(c(C)c3c1sc1ccccc13)CCN=C2 | 98% (active)
COc1ccc(C23OCCN2C(=O)c2ccccc23)cc1 (centres undefined) | -2% (inactive)
N#C/C(=C\NC(=S)C(N)=S)c1nc2ccccc2s1 | 97% (active)
CCc1cccc(C)c1N1C(=O)C(=O)C(c2nc3ccccc3o2)/C(=N\NS(=O)(=O)c2ccc(C)cc2)C1=O (centres undefined) | -2% (inactive)

Give growth inhibition for all compounds that follow.
1. COc1cccc(C2c3cc4c(cc3OC(N3CCCC3)C2C)OCO4)c1 (centres undefined)
2. CN(C)c1ccc(/C=C(\C#N)c2cccc(Cl)c2)cc1
3. CC(=O)OCCSCCOC(C)=O
4. COc1ccc2c(Cc3cccc([N+](=O)[O-])c3)cncc2c1O
5. O=C(O)c1ccc(N=CC2CO2)cc1 (centres undefined)
6. O=[N+]([O-])c1ccc(-c2nc(/C=N/N3CCCCC3)cs2)o1

1: 67% (inactive); 2: -25% (inactive); 3: 23% (inactive); 4: 76% (active); 5: 99% (active); 6: 32% (inactive)

# map each compound to its growth inhibition
1. N#Cc1c(N)nc2c(N=Nc3ccccc3)c(N)nn2c1Nc1ccccc1
2. O=C1CC(O)C=C1Nc1ccc(Cl)cc1 (centres undefined)
3. CCOC(=O)C1=C(Nc2ccc(Br)cc2)OC/C1=N\NC(=O)c1ccccc1O
4. Cc1ccc(O)c(C(c2cc(C)ccc2O)c2ccccc2Cl)c1
5. O=P(N=P(c1ccccc1)(c1ccccc1)c1ccccc1)(c1ccccc1)c1ccccc1

1. 5% (inactive)
2. -8% (inactive)
3. 4% (inactive)
4. 99% (active)
5. 98% (active)

Below are some compounds; for each one, tell me its growth inhibition.
1. COc1cc2c(cc1OC)C(=O)C(C)(c1ccccc1)NC2 (centres undefined)
2. Fc1ccc(CSC(=S)Nc2ccc(F)cc2)cc1
3. O=Cc1[nH]c(=S)[nH]c(=O)c1CCCc1ccccc1
4. O=Cc1ccc([N+](=O)[O-])o1
5. FC(F)(F)c1nc2cc(SSc3cc4nc(C(F)(F)F)[nH]c4cc3Cl)c(Cl)cc2[nH]1
6. CC(=O)N=C1N(/C=C2\C(=O)Oc3ccccc3C2=O)C(=O)/C(=C/c2cccc(Cl)c2Cl)N1C
7. N#CCCN(CCC#N)Cc1c(O)c(O)c(CN(CCC#N)CCC#N)c2ccccc12
8. OC(Cc1cccnc1)(c1ccccc1)c1ccc(Cl)cc1 (centres undefined)

56% (inactive)
-4% (inactive)
92% (active)
85% (active)
91% (active)
25% (inactive)
-7% (inactive)
64% (inactive)
